I'd appreciate it if you could supply Phage binding ELISA signal, Anti-PSMA Fab values for the items below.
- TEST_TARGET: T1, PSMA Fab (006 PSMA Fab), biotinylated (biotinylated (site and chain not stated))
- T1 construct: also called Anti-PSMA Fab; anti-PSMA Fab
- ASSAY_REMARKS: phage ELISA; biotinylated PSMA Fab on neutravidin plate, blocking buffer alone, bound phage detected with HRP anti-M13 antibody
Answer as a number with no unit attached.

Lookup: // fetch Phage binding ELISA signal, Anti-PSMA Fab given entry DFIRCSPIWMCDGF (Tested as crude clonal phage supernatant; not shown: pIII filament protein of the bacteriophage, fused to the peptide) [Phage-3617, clonal phage showing a Peptide-180 library peptide]
Found: 1.57

Lookup: Return Phage binding ELISA signal, Anti-PSMA Fab for the following binder: VVVSCTPSWMCTGL (Tested as crude clonal phage supernatant; not shown: pIII filament protein of the bacteriophage, fused to the peptide) [Phage-3606, clonal phage showing a Peptide-180 library peptide]
Found: 1.58

Lookup: Supply measured Phage binding ELISA signal, Anti-PSMA Fab of ESRLCVPMWMCSGF (Tested as crude clonal phage supernatant; not shown: pIII filament protein of the bacteriophage, fused to the peptide) [Phage-3616, clonal phage showing a Peptide-180 library peptide] in your reply.
Found: 1.57

Lookup: Answer with the recorded Phage binding ELISA signal, Anti-PSMA Fab of ETMRCEPSWMCIGL (Tested as crude clonal phage supernatant; not shown: pIII filament protein of the bacteriophage, fused to the peptide) [Phage-3613, clonal phage showing a Peptide-180 library peptide] only.
Found: 1.57

Lookup: Return value of Phage binding ELISA signal, Anti-PSMA Fab for input WTFKCEPVWMCEGF (Tested as crude clonal phage supernatant; not shown: pIII filament protein of the bacteriophage, fused to the peptide) [Phage-3605, clonal phage showing a Peptide-180 library peptide] , no commentary.
Found: 1.58

Lookup: Give the value of Phage binding ELISA signal, Anti-PSMA Fab reported for the following: LDRLCLPQWMCVGM (Tested as crude clonal phage supernatant; not shown: pIII filament protein of the bacteriophage, fused to the peptide) [Phage-3615, clonal phage showing a Peptide-180 library peptide]
Found: 1.57
